Ref: the supplement of paper PMC10567573

Reported protein stability index values are given for each entry in this list.
B1: PLAGL1 (parent)
chain: DPNKMAFGCEECGKKYNTMLGYKR

- Variants of: B1
- testDetails: protein stability index of a GFP-peptide fusion (GPS, HEK-293T) (PSI 1-6); higher = more stable;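 also: lentivirally expressed fusions sorted by FACS into six bins by GFP to DsRed ratio, PSI derived from sequencing read proportions per bin multiplied by bin number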
- appliedConditions: c terminus: a fixed tail appended
// no unit, no text: just the number

mutationCode | protein stability index
M5G | 2.81
G21V | 1.81
D1V | 2.7
K15R | 1.52

In the following, a different variant is considered.
Bench note: what protein stability index did `L20I` show?
2.54
